target: D2R long isoform (PathHunter) (Homo sapiens, UniProt P14416); construct: long isoform in CHO-K1 PathHunter cells (DiscoverX), beta-galactosidase enzyme-fragment complementation with beta-arrestin; reporter tags not detailed; test: PathHunter beta-arrestin recruitment, agonist mode
Sequence (P14416 whole entry, the tested form may be a part, canonical isoform): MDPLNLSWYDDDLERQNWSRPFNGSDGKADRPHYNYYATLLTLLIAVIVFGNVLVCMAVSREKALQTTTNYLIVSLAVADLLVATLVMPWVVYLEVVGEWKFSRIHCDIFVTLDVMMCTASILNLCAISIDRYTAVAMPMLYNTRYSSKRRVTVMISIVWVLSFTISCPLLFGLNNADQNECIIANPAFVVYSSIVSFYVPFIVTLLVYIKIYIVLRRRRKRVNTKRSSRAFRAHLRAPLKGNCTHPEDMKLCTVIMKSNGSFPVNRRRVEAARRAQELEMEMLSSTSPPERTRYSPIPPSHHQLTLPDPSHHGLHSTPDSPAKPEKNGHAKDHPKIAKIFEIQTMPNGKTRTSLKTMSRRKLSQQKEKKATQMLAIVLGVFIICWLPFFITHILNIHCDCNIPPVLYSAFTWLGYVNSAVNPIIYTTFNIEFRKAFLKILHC
readout_name: log10(EC50) (log10 of the value in µM)
Plainly stated, the numbers are log10 of EC50 given in µM.

Entry Oc1c(CN2CCN(c3ccccn3)CC2)ccc2cccnc12 [compound 2] ; log10(EC50) = -0.05

Lab note: c1cnc(N2CCN(Cc3cccc4ccccc34)CC2)nc1 [compound 46] gave log10(EC50) of 1.16

So, c1ccc2cc(CN3CCN(c4cnccn4)CC3)ccc2c1 [compound 37] ? Its log10(EC50) was 1.39

Measured log10(EC50), c1cnc(N2CCN(Cc3cc4ccccc4[nH]3)CC2)nc1 [compound 44] : 0.00

GET /value?item= c1cnc(N2CCN(Cc3ccc4cc[nH]c4c3)CC2)nc1 [compound 43] &field=log10(EC50) returns -1.00

Form: compound = c1cnc(N2CCN(Cc3ccc4ccccc4c3)CC2)nc1 [compound 45] ; log10(EC50) = 0.41

Documented log10(EC50) of Oc1c(CN2CCN(c3ncccn3)CC2)cc(Cl)c2cccnc12 [compound 19] : -0.30

# log10(EC50) of Clc1c(CN2CCN(c3ccccn3)CC2)ccc2cccnc12 [compound 7] = 0.86
